Test system: Fibroblast
assayOverview: Multiplex assay against human fibroblast
Type: toxicity, cell-based
measurementSetup: 12 h, 1 µM, compound concentration 1 uM, replicate 2
recordedMetric: Population Mitotic Cells (%)

• CN(C)C(=O)C(CCN1CCC(O)(c2ccc(Cl)cc2)CC1)(c1ccccc1)c1ccccc1.Cl [LOPERAMIDE HYDROCHLORIDE] = 75%
• CNC(=O)c1ccc(Nc2nc(OC3CCCC3)c3c(-c4ccc5nc(C)oc5c4)c[nH]c3n2)c(OC)c1 = 66%
• Cn1nc(C(F)(F)F)cc1-c1cnc(N2CCc3cc(S(=O)(=O)Nc4c(F)cc(Cl)cc4F)cc(N4CCCC4=O)c32)nc1 [TP-020] = 57%
• CCCn1c(=O)c2[nH]c(-c3cnn(Cc4cccc(C(F)(F)F)c4)c3)nc2n(CC)c1=O [GS 6201] = 57%
• CCOC(=O)c1c(C)[nH]c2ccc3c(c12)CN1CCc2cc(OC)ccc2C1O3 (stereo not drawn) = 90%
• CCn1cc(-c2ccnc3[nH]c(-c4cccc(CN(C)C)c4)cc23)c(-c2ccc(NC(=O)N(C)C)cc2)n1 [GSK-1070916] = 75%
• COc1ccc(S(=O)(=O)N(CCO)c2ccccc2CN(C)C/C=C/c2ccc(Cl)cc2)cc1.O=P(O)(O)O = 20%
• CCc1cccc(CC)c1NC(=O)c1nn(C)c2c1CCc1cnc(Nc3ccc(N4CCN(C)CC4)cc3OC)nc1-2 = 50%

----------
Tested on: HEK-293T
assayOverview: Incucyte cell viability with HEK293T; note: filed as whole numbers so only -1 and 0 and 1 occur
Type: toxicity, cell-based
measurementSetup: human, 24 h, 10 µM, compound concentration 10 uM, replicate number 1, timepoint 24 hours
Reported Growth Rate values follow for various molecules
recordedMetric: Growth Rate

• O=C1NC(c2ccccn2)Sc2ccccc21 (centres undefined) [BTZO-4] = 1
• N#Cc1c[nH]c2c(C(=O)N3CCN(CCc4ccc(F)cc4)CC3)cccc12 [PRUVANSERIN] = 0
• CO[C@H]1CC[C@H](CNc2ccc(S(=O)(=O)NC(=O)c3ccc(N4CCN(CC5=C(c6ccc(Cl)cc6)CC(C)(C)CC5)CC4)cc3Oc3cnc4[nH]ccc4c3)cc2[N+](=O)[O-])CC1 [A-1211212] = 1
• O=C(Nc1ccc(Cl)cc1)Nc1cccc(-c2cccc(N3CCCC3)n2)c1 = 0
• CNC(=O)c1ccccc1Nc1cc(Nc2ccc(N3CCOCC3)cc2OC)ncc1C(F)(F)F [VS-4718] = 0
• CNc1cc(Oc2cc(C(=O)Nc3cc(N4CCN(C)CC4)cc(C(F)(F)F)c3)ccc2C)ncn1 = 0
• NC(CCP(=O)(O)O)C(=O)O (racemic) = 1
• COc1cc(-c2cn(C)c(=O)c3cnccc23)c(OC)cc1CN(C)C = 0
• CCCS(=O)(=O)Nc1ccc(F)c(C(=O)c2c[nH]c3ncc(Cl)cc23)c1F [PLX-4720] = 0
• CC(C)OC(=O)C1=CN(C(=O)c2ccc(F)c(F)c2)CC(C)(C)c2c1[nH]c1ccccc21 [TUROFEXORATE ISOPROPYL] = 0
• C[C@@H](c1cccc(C#N)c1)n1cc(Cl)cc(C(N)=O)c1=N.Cl = 1
• C=CC(=O)N1CCC([C@@H]2CCNc3c(C(N)=O)c(-c4ccc(Oc5ccccc5)cc4)nn32)CC1 [ZANUBRUTINIB] = 0
• COc1cc2c(CCNC(C)=O)c[nH]c2cc1Cl = 1
• CNC(=O)c1ccc(Nc2nc(OC3CCCC3)c3c(-c4ccc5nc(C)oc5c4)c[nH]c3n2)c(OC)c1 = 0
• Cc1c(C(=O)O)cc(-c2ccc(C3CCNCC3)cc2)c2ccc(-c3ccc(C(F)(F)F)cc3)cc12.Cl = 0
• CCCCN(CCCC)C(=O)CN1C[C@H](c2cc(OC)c3c(c2)OCO3)[C@@H](C(=O)O)[C@@H]1CC(C)(C)CCC.Cc1ccc(S(=O)(=O)O)cc1 = 1
• COc1cc(OC)cc(-c2noc(N3CCN(C)C4(CCN(c5ccnc(C)c5)CC4)C3)n2)c1 = 1
• COc1ccc(S(=O)(=O)N(CCO)c2ccccc2CN(C)C/C=C/c2ccc(Cl)cc2)cc1.O=P(O)(O)O = 0
• CC(=O)C1=C(C)N(c2cccc(C(F)(F)F)c2)C(=O)N[C@@H]1c1ccc(C#N)nc1 [BAY-678] = 1
• CC(C)(Sc1ccc(CCN(CCCCC2CCCCC2)C(=O)NC2CCCCC2)cc1)C(=O)O [GW7647] = 0
• C[C@@H]1CN(c2cc(-c3n[nH]c4ccc(OC5(C)CC5)cc34)ncn2)C[C@H](C)O1 [MLi-2] = 1
• CCn1cc(-c2ccnc3[nH]c(-c4cccc(CN(C)C)c4)cc23)c(-c2ccc(NC(=O)N(C)C)cc2)n1 [GSK-1070916] = 0
• O=C(Cc1ccc(-c2ccc(OCCN3CCOCC3)cc2)cn1)NCc1ccccc1 [TIRBANIBULIN] = 0
• Cc1nnc2c3ccccc3c(N[C@@H](C)[C@H](c3ccccc3)N(C)C)nn12 = 0
• Cc1ccc(C(=O)Nc2cccc(C(F)(F)F)c2)cc1Nc1nc(-c2cccnc2)nc2c1cnn2C = 0
• CS(=O)(=O)NCC[C@H](NC(=O)c1cncc2c1cnn2-c1ccc(F)cc1)c1ccnc(S(C)(=O)=O)c1 [BI 9307] = 1
• CN1CCN(C(=O)C(C)(C)c2ccc(C(=O)Nc3cn4cc(-c5ccncc5)ccc4n3)cc2)CC1 [T3-CLK] = 0
• CN1CCC(=C2c3ccccc3CC(=O)c3sccc32)CC1.O=C(O)/C=C/C(=O)O [KETOTIFEN FUMARATE] = 0
• Cc1oncc1C(=O)Nc1ccc(C(F)(F)F)cc1 [LEFLUNOMIDE] = 0
• CCCCCCCCCCCCCCCCOC[C@H](COP(=O)([O-])OCC[N+](C)(C)C)OC(C)=O = 1
• CCCCCNC(=O)NS(=O)(=O)c1cc([N+](=O)[O-])ccc1NC1CCCCC1 = 1
• CCN1CCN(Cc2ccc(Nc3ncc(F)c(-c4cc(F)c5nc(C)n(C(C)C)c5c4)n3)nc2)CC1.CS(=O)(=O)O = 0
• Cc1ccc2nc(CNCCCOc3ccccc3)cc(O)c2c1 [UCSF924] = 0
• Cn1cc(CCn2cnc(-c3cnn(C)c3)c2-c2ccc(C#N)cc2)cn1 = 1

----------
System: U2OS
assayOverview: Multiplex assay against U2OS
Format: toxicity, cell-based
measurementSetup: human, 48 h, 10 µM, compound concentration 10 uM, replicate 2
recordedMetric: Population Normal (%)

- S=C(NCCCc1c[nH]cn1)NCCCN(Cc1ccc(Cl)c(Cl)c1)c1ccc(Br)cn1: 69
- COCC(=O)NC/C=C/c1ccc2ncnc(Nc3ccc(Oc4ccc(C)nc4)c(C)c3)c2c1: 85
- COc1cc(N2CCN(C)CC2)ccc1Nc1ncc2c(n1)N(C)c1ccccc1C(=O)N2C: 80
- CCOc1cc(C(=O)N2CCC(N3CCN(C)CC3)CC2)ccc1Nc1ncc2c(n1)N(C1CCCC1)c1ccccc1C(=O)N2C: 81
- O=C(Cc1ccc(-c2ccc(OCCN3CCOCC3)cc2)cn1)NCc1ccccc1: 88
- O=C(Nc1ccc(Cl)cc1)Nc1cccc(-c2cccc(N3CCCC3)n2)c1: 60
- CCCn1c(=O)c2[nH]c(-c3cnn(Cc4cccc(C(F)(F)F)c4)c3)nc2n(CC)c1=O: 97
- CCOC(=O)c1c(C)[nH]c2ccc3c(c12)CN1CCc2cc(OC)ccc2C1O3 (centres undefined): 85
- Cl.O=c1c2cccn2c2ccccc2n1CCCN1CCC(c2ccc(Cl)cc2)CC1: 89

----------
Test system: Fibroblast
assayOverview: Multiplex assay against human fibroblast
Format: toxicity, cell-based
measurementSetup: 48 h, 1 µM, compound concentration 1 uM, replicate 1
Population Normal (%) under 80% gets t, anything at or over 80% gets f.

* Cc1cn(-c2cc(NC(=O)c3ccc(C)c(Nc4nccc(-c5cccnc5)n4)c3)cc(C(F)(F)F)c2)cn1 | f
* Cc1ccc(C(=O)Nc2cccc(C(F)(F)F)c2)cc1Nc1nc(-c2cccnc2)nc2c1cnn2C | t
* O=C(Nc1ccc(Cl)cc1)Nc1cccc(-c2cccc(N3CCCC3)n2)c1 | f
* O=C(Nc1ccc(-c2ccnc(Nc3ccc(N4CCOCC4)cc3)n2)cc1)[C@@H]1CCCN1 | f
* O=C1NC(=O)C(c2cnc3ccccn23)=C1c1cn2c3c(cc(F)cc13)CN(C(=O)N1CCCCC1)CC2 | f
* Cl.O=c1c2cccn2c2ccccc2n1CCCN1CCC(c2ccc(Cl)cc2)CC1 | f
* CN1CCC(=C2c3ccccc3CC(=O)c3sccc32)CC1.O=C(O)/C=C/C(=O)O [KETOTIFEN FUMARATE] | f
* CCN1CCN(Cc2ccc(Nc3ncc(F)c(-c4cc(F)c5nc(C)n(C(C)C)c5c4)n3)nc2)CC1.CS(=O)(=O)O | t

----------
Test system: U2OS
assayOverview: Multiplex assay against U2OS
Type: toxicity, cell-based
measurementSetup: human, 12 h, 1 µM, compound concentration 1 uM, replicate 1
recordedMetric: Population Mitochondria Different-Phenotype (%)

• COc1cccc2cc(-c3nc([C@H]4CC[C@H](C(=O)O)CC4)n4ncnc(N)c34)[nH]c12 [OSI-027] = 6
• O=C1N/C(=N/c2ccccc2F)S/C1=C\c1ccc(C(=O)O)cc1 = 10
• CCN1CCN(Cc2ccc(Nc3ncc(F)c(-c4cc(F)c5nc(C)n(C(C)C)c5c4)n3)nc2)CC1.CS(=O)(=O)O = 92
• CCCn1c(=O)c2[nH]c(-c3cnn(Cc4cccc(C(F)(F)F)c4)c3)nc2n(CC)c1=O [GS 6201] = 5

Every entry's value here was drawn from ChEMBL document CHEMBL4689842.
